assay: in vivo; details: dog, po, 2.5 mg/kg
Quantity Kind: concentration at 3 h (µg/mL)
Expressed in µg/mL, but write only the number.

Data request, read-out concentration at 3 h, for CCn1cc(C(=O)O)c(=O)c2cnc(N3CCNCC3)nc21 [Example VIII]
185

----------
test system: Pr. vulgaris; experiment: Minimum inhibitory concentration by agar dilution, Pr. vulgaris; type: cell-based; settings: Proteus vulgaris, 18 h; agar medium, N.A.; Table II; read-out: minimum inhibitory concentration
Below, each entry is listed with its recorded MIC.
Write the value in µg/mL as a bare number.

C=CCN1CCN(c2ncc3c(=O)c(C(=O)O)cn(CC)c3n2)CC1 [XIV]; 3.1
CCCN1CCN(c2ncc3c(=O)c(C(=O)O)cn(CC)c3n2)CC1 [XIII]; 6.2
CCn1cc(C(=O)O)c(=O)c2cnc(N3CCN(Cc4ccc(OC)cc4)CC3)nc21 [XVI]; 6.2

Bench note: what MIC did CCN1CCN(c2ncc3c(=O)c(C(=O)O)cn(CC)c3n2)CC1 [Example XII] show?
0.8
